Data origin, for the record: patent US20230250160A1

Would you kindly list pKd for each of these binders?
Molecular target: T1, Human Serum Albumin (human, UniProt P02768 25-609)
T1 construct: also called HSA
T1 sequence (P02768 25-609 limits assumed): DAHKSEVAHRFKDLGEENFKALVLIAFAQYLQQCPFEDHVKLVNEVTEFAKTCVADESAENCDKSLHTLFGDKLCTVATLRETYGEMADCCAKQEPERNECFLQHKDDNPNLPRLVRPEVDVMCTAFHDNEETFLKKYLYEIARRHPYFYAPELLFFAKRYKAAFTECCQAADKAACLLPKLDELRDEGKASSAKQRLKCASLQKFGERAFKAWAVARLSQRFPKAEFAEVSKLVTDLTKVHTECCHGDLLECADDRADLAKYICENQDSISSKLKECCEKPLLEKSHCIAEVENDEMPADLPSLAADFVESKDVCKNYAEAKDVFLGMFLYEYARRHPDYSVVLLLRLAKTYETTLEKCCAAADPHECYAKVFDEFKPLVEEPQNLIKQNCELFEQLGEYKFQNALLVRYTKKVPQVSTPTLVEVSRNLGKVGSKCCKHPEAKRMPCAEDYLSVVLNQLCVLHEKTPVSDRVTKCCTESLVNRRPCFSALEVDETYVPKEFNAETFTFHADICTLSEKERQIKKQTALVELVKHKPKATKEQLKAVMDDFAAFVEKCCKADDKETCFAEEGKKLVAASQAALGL
Assay: SPR Biacore T200, HSA on CM5 chip, ADAPT injected, 1:1 fit
Procedure: Sensor-based binding analysis was performed using a Biacore T200 system (GE Healthcare, Stockholm, Sweden). All analyses were conducted using CM-5 sensor chips coated with the target antigen, another irrelevant antigen and HSA. One surface was left as reference. Binding analysis was performed in PBS-T at 25° C. […] Kinetic parameters were determined using the Biacore Insight Evaluation software, assuming a 1:1 binding.
Numbers only, as −log10 of the molar value.

{"binder": "LYHAKWMASLELAKYGVSDFYWNLISKAKTVEGVEALKLHILAALP (designed binder) [ADAPT variant REN_01]", "pKd": 7.64}
{"binder": "LHYAKIMAFHELWQYGVSDFYLQLIDKAKTVEGVEALKLHILAALP (designed binder) [ADAPT variant CRP_48]", "pKd": 7.82}
{"binder": "LVIAKAYAQYELAFYGVSDFYSDLIKKAKTVEGVEALKLHILAALP (designed binder, also called INS_01) [ADAPT variant Insulin_01]", "pKd": 8.41}
{"binder": "LAVAKAYAKYELAFYGVSDFYNELILKAKTVEGVEALKLHILAALP (designed binder, also called INS_03) [ADAPT variant Insulin_03]", "pKd": 8.51}
{"binder": "LRVAKSMAWHELWSYGVSDFYLRLIDKAKTVEGVEALKLHILAALP (designed binder) [ADAPT variant CRP_09]", "pKd": 8.11}

For the binder shown here, LTVAKFWALTELQEYGVSDFYANLITKAKTVEGVEALKLHILAALP (designed binder) [ADAPT variant PSA_01] , give the reported pKd.
8.96
